- Assay details: Rat pharmacokinetic assay
- Assay type: in vivo, male SD rats
- Condition: male, SD, plasma; rat; oral gavage administration 5 mg/kg
Here the recorded Tmax is given for each entry.

What does the record list as Tmax for C[C@H](NC(=O)c1c(C(F)F)nn(C)c1Oc1cccc(C(F)(F)F)c1)c1ccc(C(=O)O)cc1 [Control Compound, reference compound] ?
0.5 h

What value of Tmax has been recorded for this entry: C[C@H](NC(=O)c1c(C(F)F)nn(C)c1Oc1cccc(C(C)(F)F)c1)c1ccc(C(=O)O)cc1 [Compound I-5]
2 h

###

- Assay details: Rat pharmacokinetic assay
- Assay type: in vivo, male SD rats
- Condition: male, SD, plasma; rat; oral gavage administration 5 mg/kg
Recorded metric: AUC(0-t) (ng·h/mL)
Write the answer as a number in ng·h/mL, unit excluded.

C[C@H](NC(=O)c1c(C(F)F)nn(C)c1Oc1cccc(C(C)(F)F)c1)c1ccc(C(=O)O)cc1 : 10800

Turning to the following compound.
Entry C[C@H](NC(=O)c1c(C(F)F)nn(C)c1Oc1cccc(C(F)(F)F)c1)c1ccc(C(=O)O)cc1 [Control Compound, reference compound] : reported AUC(0-t) = ?
6850
